B1: Formin-binding protein 4, residues 593 to 636; numbered along this chain, Q8N3X1 (parent)
chain: EINATPKGWSCHWDRDHRRYFYVNEQSGESQWEFPDGEEEEEES

Variants of: B1
Test: abundance fitness (aPCA) (normalised: wild type 0, dead -1); higher = more abundant; growth selection in yeast, the domain comes from the species named
Settings: Homo sapiens
OBSERVABLE: abundance fitness
Keep it simple and answer with nothing but the number.

Data request: Report abundance fitness for EINATPKGWSCHWDRDHRREFYVNEQSGESQWEFPDGEEEEEES [Y20E] please.
Data returned: -0.488

Data request: Report abundance fitness for EINATPKGWSCHWDRDSRRYFYVNEQSGESQWEFPDGEEEEEES [H17S] please.
Data returned: -0.01

Data request: Report abundance fitness for EINATPKGWSCHWDRSHRRYFYVNEQSGESQWEFPDGEEEEEES [D16S] please.
Data returned: -0.24

Data request: Report abundance fitness for EINATPKGWSCHWDRDHRRYFYVNEQSGGSQWEFPDGEEEEEES [E29G] please.
Data returned: -0.253

Data request: Report abundance fitness for EINATPKGWSCHWDRDHRRRFYVNEQSGESQWEFPDGEEEEEES [Y20R] please.
Data returned: -0.229

Data request: Report abundance fitness for EINATPKGWSCHWDRDHRRYFYVNEQSGESMWEFPDGEEEEEES [Q31M] please.
Data returned: -0.451

Data request: Report abundance fitness for EINATPKGWSCHWDRDHRRYFYVNEQSGEAQWEFPDGEEEEEES [S30A] please.
Data returned: 0.014

Data request: Report abundance fitness for EINATPKGWSCWWDRDHRRYFYVNEQSGESQWEFPDGEEEEEES [H12W] please.
Data returned: -0.637

Data request: Report abundance fitness for EINATPKGCSCHWDRDHRRYFYVNEQSGESQWEFPDGEEEEEES [W9C] please.
Data returned: -0.56

Data request: Report abundance fitness for EINATPKGWGCHWDRDHRRYFYVNEQSGESQWEFPDGEEEEEES [S10G] please.
Data returned: -0.528

Data request: Report abundance fitness for EINATPKGWSCHWDRDHRRYFYVNEQSGESQWEFPDGEEEEEVS [E43V] please.
Data returned: 0.046

Data request: Report abundance fitness for EINATPKGYSCHWDRDHRRYFYVNEQSGESQWEFPDGEEEEEES [W9Y] please.
Data returned: -0.534

Data request: Report abundance fitness for EINATPKGWSCHWDRDHRRYFYVNEQSGTSQWEFPDGEEEEEES [E29T] please.
Data returned: -0.269

Data request: Report abundance fitness for EINATPKGWSCHWDRDHRRYFYVNEQSGESQWEFPSGEEEEEES [D36S] please.
Data returned: 0.003

Data request: Report abundance fitness for EINATPKGWSCHWDRDHRSYFYVNEQSGESQWEFPDGEEEEEES [R19S] please.
Data returned: -0.391

Data request: Report abundance fitness for EINATPKGWSCHWDRDHRRYFYVNEQSGESQLEFPDGEEEEEES [W32L] please.
Data returned: -0.002

Data request: Report abundance fitness for EINATPKGWSCHWDRDHRRYFYVNEQSGESWWEFPDGEEEEEES [Q31W] please.
Data returned: -0.613

Data request: Report abundance fitness for EINATPKGWSCHWDRDHRRYFYVNEQSGASQWEFPDGEEEEEES [E29A] please.
Data returned: -0.052

Data request: Report abundance fitness for MINATPKGWSCHWDRDHRRYFYVNEQSGESQWEFPDGEEEEEES [E1M] please.
Data returned: -0.019

Data request: Report abundance fitness for EIDATPKGWSCHWDRDHRRYFYVNEQSGESQWEFPDGEEEEEES [N3D] please.
Data returned: 0.157

Data request: Report abundance fitness for EINATPKGWSCHWDRDHWRYFYVNEQSGESQWEFPDGEEEEEES [R18W] please.
Data returned: -0.571

Data request: Report abundance fitness for EINATPKGWSCHWDRDHRRYFYVNEQSGESQGEFPDGEEEEEES [W32G] please.
Data returned: -0.28
